# Assay protocol: Toxicity liver stage against HepG2, at 10uM
# Format: cell-based
# Parameters: test concentration 10 uM, cell line HepG2-A16-CD81EGFP
# Recorded conditions: human, HepG2-A16-CD81EGFP cells; read-out: INHIBITION
Quantity measured: cytotoxicity at 10 µM (%)

Compound: CN(Cc1nnc(C2CC2)o1)C(c1ccc(F)cc1)c1cccnc1 (stereo unspecified)
Numeric value: -4.06

Compound: O=c1c(S(=O)(=O)N2CCCC2)cccn1Cc1ccccc1Cl
Numeric value: 2.96

Compound: CCOc1ccc(CN(CCOC)C(=O)c2ccncc2Cl)cc1
Numeric value: 5.82

Compound: CC(C)C(C)NC(=O)Nc1cccn(C)c1=O (stereo unspecified)
Numeric value: -7.48

Compound: COc1ccc2c3c1CN(S(C)(=O)=O)CC3=CC(C)(C)CO2
Numeric value: 7.77

Compound: COC(=O)c1cccn1C1CCN(C(=O)c2c(C)noc2C)CC1
Numeric value: -11.4

Compound: CC(C)n1ncc2cc(NC(=O)N3CCC(N4CCCC4)C3)cnc21 (stereo unspecified)
Numeric value: -8.58

Compound: CCc1noc(CN(CC)C(=O)C2CC(=O)N(Cc3ccncc3)C2)n1 (stereo unspecified)
Numeric value: 18.2

Compound: Clc1ccccc1C1(c2ccnc(C3CC3)n2)CCNCC1
Numeric value: 7.89

Compound: CC(C(=O)NCCCN1CCCCCC1=O)n1cncn1 (stereo unspecified)
Numeric value: -20.9

Compound: CCc1nnc2n1CCN(C(=O)c1cn(-c3ccccc3)nn1)C2
Numeric value: -141

Compound: O=C(NCC(=O)N1CCc2ccccc2C1)c1ccoc1
Numeric value: -4.59

Compound: COCCN(Cc1ccco1)c1ncc(C#N)cc1Cl
Numeric value: -2.66

Compound: COc1cccc(CNC2CCCOc3cc(C)ccc32)n1 (stereo unspecified)
Numeric value: 8.53

Compound: CC(Nc1ncnc2c1NC(=O)CN2)c1ccc2c(c1)OCO2 (stereo unspecified)
Numeric value: 8.19

Compound: COC(=O)C1C=CCN1C(=O)c1cc(COc2ccccc2)[nH]n1 (stereo unspecified)
Numeric value: -4.45

Compound: Cc1cc(CN(C)C(=O)c2ccc(C(F)(F)F)nc2)no1
Numeric value: 2.05

Compound: CNS(=O)(=O)c1ccc(CNC(=O)N(C)CC(C)C)cc1
Numeric value: 1.08

Compound: CCn1ncnc1CN1CCc2[nH]cnc2C1c1ccccn1 (stereo unspecified)
Numeric value: -9.38

Compound: COCC1CN(C(=O)N2CCCC2)Cc2cnn(CC3CCCC3)c21 (stereo unspecified)
Numeric value: 9.23

Compound: COC(=O)CNc1ccc(-c2nc(Cc3ccc(OC)cc3)no2)cn1
Numeric value: 1.06

====

Listing of entries alongside the reported cytotoxicity at 10 µM.
# Assay protocol: Toxicity liver stage against HepG2, at 10uM
# Format: cell-based
# Design: test concentration 10 uM, cell line HepG2-A16-CD81EGFP
# Recorded conditions: human, HepG2-A16-CD81EGFP cells; read-out: INHIBITION

Compound: O=C(CC1Cn2ncnc2NC1=O)Nc1ccccc1 (stereo not given)
cytotoxicity at 10 µM: 6.11%

Compound: CS(=O)(=O)c1ccc(NC(=O)CSC(F)(F)F)cn1
cytotoxicity at 10 µM: 8.28%

Compound: Cc1cc(C)n(Cc2ccc(-c3noc(C(=O)NCCO)n3)cc2)n1
cytotoxicity at 10 µM: -9.45%

Compound: CC(=O)Nc1cccc(C(=O)N(C)C(C)Cc2cc(C)ccn2)c1 (stereo not given)
cytotoxicity at 10 µM: 11%

Compound: Cc1nc(N)ccc1CC1COc2ccccc2C1 (stereo not given)
cytotoxicity at 10 µM: 3.79%

Compound: CCCNC(=O)Cn1cc(C#N)c(=O)c2cc(Br)ccc21
cytotoxicity at 10 µM: -0.842%

Compound: c1ccc(CCN2C[C@@H]3OCCN(c4ncccn4)[C@@H]3C2)cc1
cytotoxicity at 10 µM: -74.1%

Compound: CC(NC(=O)CNc1cc2c(cc1Cl)OCCO2)c1ccco1 (stereo not given)
cytotoxicity at 10 µM: -1.31%

Compound: Cc1nn(C)c(C)c1CN1CCCC1c1nccc(CN(C)C)n1 (stereo not given)
cytotoxicity at 10 µM: -28.1%

Compound: Cc1nc(O)cc(CN2CC=C(c3cnn(-c4ccccc4)c3)CC2)n1
cytotoxicity at 10 µM: -10.5%

Compound: N#Cc1nc(COc2ccc3c(c2)OCO3)oc1NC1CCCCC1
cytotoxicity at 10 µM: -41.4%

Compound: CCN(CC)Cc1nnc2sc(-c3cc(C(C)C)[nH]n3)nn12
cytotoxicity at 10 µM: -7.02%

Compound: O=C(C1CCCC1)N1CCC2(CC1)COCCN2CC1CC1
cytotoxicity at 10 µM: 5.01%

Compound: COc1ccc2c3c1CN(C(=O)N(C)C)CC3=CC(C)(C)CO2
cytotoxicity at 10 µM: 5.21%

Compound: Cn1ccnc1C1CCCN(C(=O)c2cc(F)cc(F)c2)C1 (stereo not given)
cytotoxicity at 10 µM: 18.4%

Measured values drawn from ChEMBL document CHEMBL4513216 for this set.
